FYI, the data here is from ChEMBL document CHEMBL1201862.

# System: NCI-H522
# assay summary: NCI tumour cell line growth inhibition, 48 h
Activity calls are given as the source filed them. Cut-off read from the data, not from the text of the source: active = GI50 up to about 1.1 µM and inactive = higher.
Outcome codes: active, inactive

{"compound": "Cc1cc(S(=O)(=O)NC(=C(C#N)C#N)[n+]2ccc(N(C)C)cc2)c([S-])cc1Cl", "label class": "inactive"}
{"compound": "CCOC(=O)C1=CNC2=N[C@H]3CCCC[C@@H]3N2C1=O", "label class": "inactive"}
{"compound": "O=c1cc[nH]c(=O)[nH]1", "label class": "inactive"}
{"compound": "COC(=O)c1c(-c2ccccc2)sc(-c2cccc3ccccc23)c1C(=O)OC", "label class": "inactive"}
{"compound": "C[N+]1(C)C/C(=C\\c2ccc(O)cc2)C(=O)/C(=C/c2ccc(O)cc2)C1", "label class": "inactive"}
{"compound": "O=C1OC(c2ccccc2)=N/C1=C\\c1ccc(Br)cc1", "label class": "inactive"}
{"compound": "O=C1C(CO)=C[C@@H](O)[C@H]2O[C@@H]12", "label class": "inactive"}
{"compound": "Cc1cc(C)c2c(c1)CC1(Cc3c(C)cc(C)cc3C1=O)C2=O (centres undefined)", "label class": "inactive"}
{"compound": "O=S1(=O)CS(=O)(=O)OCCCCCO1", "label class": "inactive"}
{"compound": "Cc1ccc(NC(=O)CCc2nnc(N)o2)cc1", "label class": "inactive"}
{"compound": "Nc1nc(O)c2c(n1)NCN(CCCN1CCOCC1)C2", "label class": "inactive"}
{"compound": "O=C1CN(C(=O)C2CCCN2C(=O)C2CCCN2)C(=O)CN1 (centres undefined)", "label class": "inactive"}
{"compound": "C[N+](C)(C)CC1CCCC1=O (centres undefined)", "label class": "active"}
{"compound": "CCCCN(CCCC)CC(C(=O)Nc1ccc([N+](=O)[O-])cc1[N+](=O)[O-])/C(C)=N\\NC(=S)NN (centres undefined)", "label class": "inactive"}
{"compound": "COC(=O)C(Cc1cn(C(C)=O)c2ccccc12)P(=O)(OC)OC (centres undefined)", "label class": "inactive"}
{"compound": "COc1cc2c(/C=C3/C(=O)Nc4ccc(O)cc43)c(Cl)[nH]c2cc1C", "label class": "active"}
{"compound": "C/C=C(\\C)C(=O)N1c2ccccc2CC1c1c(C)[nH]c2ccccc12 (centres undefined)", "label class": "inactive"}
{"compound": "C=C1C(=O)O[C@@H]2C[C@@]3(C)CCC[C@H](C)C3=C[C@H]12", "label class": "inactive"}
{"compound": "CCOP(=O)(/C=C/n1ccc(N)nc1=O)OCC", "label class": "inactive"}

* * *

Let's look at some molecules and their measured GI50.
# Tested on: SF-539
# assay summary: NCI tumour cell line growth inhibition, 48 h
Activity calls are given as the source filed them. No stated cut-off is given here; in the data, active = GI50 up to about 1.1 µM and inactive = higher.

{"molecule": "COc1ccc2cc3[n+](cc2c1O)CCc1cc2c(cc1-3)OCO2 [BERBERRUBINE CHLORIDE]", "GI50": "> 100 µM (inactive)"}
{"molecule": "CC(=O)c1ccc2c(c1)N(CCCN1CCN(CCO)CC1)c1ccccc1C2", "GI50": "16.7 µM (inactive)"}
{"molecule": "COc1cc(C2c3cc4c(cc3OC(N3CCOCC3)C2C)OCO4)cc(OC)c1O (stereo unspecified)", "GI50": "5.66 µM (inactive)"}
{"molecule": "CCSCCCCC(c1ccc(O)cc1)C(C)(CC)c1ccc(O)cc1 (stereo unspecified)", "GI50": "20 µM (inactive)"}
{"molecule": "c1ccc(CSc2nnc3c4ccccc4c4ccccc4c3n2)cc1", "GI50": "31.4 µM (inactive)"}
{"molecule": "COc1ccccc1N1C(=O)CSC1c1cc(OC)c(OC)c(OC)c1 (stereo unspecified)", "GI50": "15.8 µM (inactive)"}

* * *

# Tested on: NCI-H23
# assay summary: NCI tumour cell line growth inhibition, 48 h
The source made the active and inactive calls. No stated cut-off is given here; in the data, active = GI50 up to about 1.1 µM and inactive = higher.
Outcome codes: active, inactive

{"compound": "NC(CCC(=O)NC(CSC(=O)N(O)c1ccccc1)C(=O)NCC(=O)O)C(=O)O (stereo not drawn)", "label class": "inactive"}
{"compound": "C[C@]12CC[C@H]3[C@@H](CC[C@]4(O)C[C@@H](O)CC[C@]34C=O)[C@@]1(O)CC[C@@H]2C1=CC(=O)OC1 [STROPHANTHIDIN]", "label class": "active"}
{"compound": "CN1CCN(C)C12C=CC=CC21CC1", "label class": "inactive"}
{"compound": "COC1CC(COCc2ccccc2)CC(OC)O1 (stereo not drawn)", "label class": "inactive"}
{"compound": "C=C(CN(C)C)C(=O)c1ccc(C)cc1C", "label class": "inactive"}
{"compound": "O=c1c2ncn(C3CC(O)C(CO)O3)c2nnn1Cc1ccccc1[N+](=O)[O-] (stereo not drawn)", "label class": "inactive"}
{"compound": "O=C(CSCC(=O)N/N=C\\c1ccc(F)cc1F)N/N=C\\c1ccc(F)cc1F", "label class": "inactive"}
{"compound": "CN1CCN(c2ccc3[nH]c(-c4ccc5[nH]c(CCCc6ccc(N(CCCl)CCCl)cc6)nc5c4)nc3c2)CC1", "label class": "inactive"}

* * *

# Test system: SF-268
# assay summary: NCI tumour cell line growth inhibition, 48 h
Active and inactive are the calls of the source. Cut-off read from the data, not from the text of the source: active = GI50 up to about 1.1 µM and inactive = higher.

{"cpd smiles": "COC(=O)CCc1ccc2c(c1)CCC2", "target of assay": "SF-268", "GI50": "> 100 µM (inactive)"}
{"cpd smiles": "C=CC(C)(C)n1cc(C2=C(O)C(=O)C(c3cn(C(C)(C)C=C)c4ccccc34)=C(O)C2=O)c2ccccc21", "target of assay": "SF-268", "GI50": "2.19 µM (inactive)"}
{"cpd smiles": "CCN(CC)CCn1c(=O)c2cccnc2n2c3c(=O)n(C)c(=O)n(C)c3nc12", "target of assay": "SF-268", "GI50": "> 100 µM (inactive)"}
{"cpd smiles": "O=C1OC(c2ccccc2)=N/C1=C\\c1ccc(Br)cc1", "target of assay": "SF-268", "GI50": "> 100 µM (inactive)"}

* * *

# Test system: RXF 393
# assay summary: NCI tumour cell line growth inhibition, 48 h
Calls of active or inactive are those of the source. No stated cut-off is given here; in the data, active = GI50 up to about 1.1 µM and inactive = higher.

{"molecule": "CCCCN(CCCC)CC(C(=O)Nc1ccc([N+](=O)[O-])cc1[N+](=O)[O-])/C(C)=N\\NC(=S)NN (centres undefined)", "target of assay": "RXF 393", "GI50": "96.2 µM (inactive)"}
{"molecule": "Cc1c(O)c(=O)ccn1CCN", "target of assay": "RXF 393", "GI50": "> 100 µM (inactive)"}
{"molecule": "O[C@]12CCCC[C@H]1CCC2", "target of assay": "RXF 393", "GI50": "> 100 µM (inactive)"}
{"molecule": "SC1=NC2=C(CSC/C2=C\\c2cccc(Br)c2)C(c2cccc(Br)c2)N1 (centres undefined)", "target of assay": "RXF 393", "GI50": "> 100 µM (inactive)"}
{"molecule": "CN(C)CCNC(=O)c1cc(NC(=O)c2cc(NC(=O)CC/C=C3/[C@@H]4CC[C@H]3N=N4)cn2C)cn1C", "target of assay": "RXF 393", "GI50": "> 100 µM (inactive)"}
{"molecule": "CN(C)c1nc(N(C)C)nc(N(C)CN(C)c2nc(N(C)C)nc(N(C)C)n2)n1", "target of assay": "RXF 393", "GI50": "> 100 µM (inactive)"}
{"molecule": "COc1ccccc1C(=O)OCC1CCCN2CCCCC12 (centres undefined)", "target of assay": "RXF 393", "GI50": "22.2 µM (inactive)"}
{"molecule": "COc1ccc(C2(c3ccc(OC)cc3)OC(=O)c3cccc4cccc2c34)cc1", "target of assay": "RXF 393", "GI50": "15.9 µM (inactive)"}
{"molecule": "Oc1cc(Br)cc2cc(Cl)cnc12", "target of assay": "RXF 393", "GI50": "1.95 µM (inactive)"}

* * *

# Tested on: HL-60
# assay summary: NCI tumour cell line growth inhibition, 48 h
Activity calls are given as the source filed them. No stated cut-off is given here; in the data, active = GI50 up to about 1.1 µM and inactive = higher.
assay metric: GI50

{"molecule": "FC(F)(F)c1ccc2nc(NCc3ccccc3)c(-c3ccccc3)nc2c1", "assay metric": "GI50", "experimental result": "19.3 µM (inactive)"}
{"molecule": "CCOC(=O)NC(=O)c1cn(CCN2CCNCC2)c(=O)[nH]c1=O", "assay metric": "GI50", "experimental result": "> 100 µM (inactive)"}
{"molecule": "COc1ccccc1C(=O)OCC1CCCN2CCCCC12 (centres undefined)", "assay metric": "GI50", "experimental result": "21.1 µM (inactive)"}
{"molecule": "COc1cc2c(cc1OC)C1C=NC(C2)c2cc(OC)c(OC)cc21 (centres undefined)", "assay metric": "GI50", "experimental result": "50.7 µM (inactive)"}
{"molecule": "O=C1/C(=C/c2ccccc2)CN(C(=O)/C=C/c2ccccc2)C/C1=C\\c1ccccc1", "assay metric": "GI50", "experimental result": "4.44 µM (inactive)"}
{"molecule": "O=c1c2ncn(C3CC(O)C(CO)O3)c2nnn1Cc1ccccc1[N+](=O)[O-] (centres undefined)", "assay metric": "GI50", "experimental result": "57.3 µM (inactive)"}
{"molecule": "Cc1c(C(=O)c2ccccc2C(=O)O)c2ccccc2n1C", "assay metric": "GI50", "experimental result": "> 100 µM (inactive)"}
{"molecule": "Cc1cc(C)c2c(O)c(S(=O)(=O)c3ccc(Cl)cc3)c(=O)oc2c1", "assay metric": "GI50", "experimental result": "52.8 µM (inactive)"}
{"molecule": "CCOC(=O)Cn1nc2ccc(Nc3nc4ccccc4nc3C(=O)OCC)cc2n1", "assay metric": "GI50", "experimental result": "> 100 µM (inactive)"}
